- study.system: RORγt (Homo sapiens)
- Sequence (P51449 1-497 isoform P51449-2, species assumed): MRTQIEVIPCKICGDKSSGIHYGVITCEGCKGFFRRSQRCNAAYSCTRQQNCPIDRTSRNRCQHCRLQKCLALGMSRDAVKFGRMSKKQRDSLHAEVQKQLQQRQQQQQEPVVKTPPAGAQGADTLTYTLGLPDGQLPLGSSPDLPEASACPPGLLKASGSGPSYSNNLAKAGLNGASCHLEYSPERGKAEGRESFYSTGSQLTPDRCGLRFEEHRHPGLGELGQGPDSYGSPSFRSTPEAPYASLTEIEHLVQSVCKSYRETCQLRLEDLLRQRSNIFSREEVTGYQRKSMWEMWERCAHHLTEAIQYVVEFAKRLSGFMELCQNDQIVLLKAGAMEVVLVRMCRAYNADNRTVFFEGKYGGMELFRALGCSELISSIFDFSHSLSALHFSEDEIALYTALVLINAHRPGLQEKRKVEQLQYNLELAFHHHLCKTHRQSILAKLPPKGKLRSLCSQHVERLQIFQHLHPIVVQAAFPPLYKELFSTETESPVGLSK
- experimental.protocol: Jurkat reporter test (human IL-17 ROR response element luciferase reporter, RORγt vector)
- Type: cell-based
- condition.context: test compound 3 μM; Jurkat cells; read-out: luminescence level inhibitory rate (%) at test compound 3 μM
measurement.kind: inhibition at 3 µM (%)

CC(C)n1c(=O)n(CC2CC2(F)F)c(=O)c2cc(NC(=O)N3CCOC(C(=O)Nc4cnc(C#N)c(Cl)c4)C3)c(F)cc21 (mixture of isomers) [Example 356]
107
CC(C)n1c(=O)n(CC2CC2)c(=O)c2cc(NC(=O)N3CCO[C@@H](C(=O)Nc4ccc(C#N)c(F)c4)C3)ccc21 [Example 102]
104
CC(C)n1c(=O)n(CC2CC2)c(=O)c2cc(NC(=O)N3CCNC(C(=O)Nc4ccc(C#N)c(Cl)c4)C3)ccc21 (stereo not drawn) [Example 82]
102
CC(C)n1c(=O)n(CC2CC(F)(F)C2)c(=O)c2cc(NC(=O)N3CCO[C@@H](C(=O)Nc4cc(Cl)c(C#N)cc4F)C3)c(F)cc21 [Example 351]
106
CC(C)n1c(=O)n(CC2CC2)c(=O)c2cc(NC(=O)N3CCC[C@@H](n4cnc5cc(C#N)ccc5c4=O)C3)c(F)cc21 [Example 324]
103
COC(=O)c1ccc(C(=O)NC2CCCN(C(=O)Nc3ccc4c(c3)c(=O)n(CC3CC3)c(=O)n4C(C)C)C2)cc1 (stereo not drawn) [Example 132]
100
CC(C)n1c(=O)n(CC2CC2)c(=O)c2cc(NC(=O)N3CCC[C@@H](NC(=O)c4ccc5c(c4)CCN(C(=O)OC(C)(C)C)C5)C3)c(F)cc21 [Example 340]
107
Cc1ccc(F)c(C(=O)N[C@@H]2CCCN(C(=O)Nc3cc4c(=O)n(CC5CC5)c(=O)n(C(C)C)c4cc3F)C2)c1 [Example 283]
101
CC(C)n1c(=O)n(CC2CC2)c(=O)c2cc(NC(=O)N3CCCC(NC(=O)c4ccc(C#N)c(Cl)c4)C3)ccc21 (stereo not drawn) [Example 88]
102
